# System Tested: T1, PUF4 RNA-binding domain (Saccharomyces cerevisiae, UniProt P25339 537-888)
# T1 sequence: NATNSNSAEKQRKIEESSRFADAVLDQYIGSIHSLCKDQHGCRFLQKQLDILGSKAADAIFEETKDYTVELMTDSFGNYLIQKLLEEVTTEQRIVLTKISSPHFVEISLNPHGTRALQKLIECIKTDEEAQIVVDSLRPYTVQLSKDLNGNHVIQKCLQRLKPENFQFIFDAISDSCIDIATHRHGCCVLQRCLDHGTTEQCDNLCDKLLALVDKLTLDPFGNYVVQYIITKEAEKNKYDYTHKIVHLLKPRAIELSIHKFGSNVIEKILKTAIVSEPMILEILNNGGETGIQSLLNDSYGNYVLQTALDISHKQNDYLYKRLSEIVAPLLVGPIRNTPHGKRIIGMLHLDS
# Assay Remarks: Mg; RNA-MaP; 20 mM Na-HEPES pH 7.4, 30 mM KOAc, 0.75 mM MgCl2, 0.1% Tween-20, 5% glycerol, 0.1 mg/mL BSA, 2 mM DTT; 25 C; 0.0125-409.6 nM protein
# Measurement Parameters: tags: N-His6-TEV cleaved; C-SNAP kept, Cy3B-labelled; label: tethered on chip by stalled RNA polymerase
pKd: −log10 of the molar value.
Threshold check on pKd: at or above 8 gives True, strictly below gives False.

Examples from the recorded data:
Problem: Tell me whether pKd is at least 8 here: UCUCUUUGUACCACCGUCUCUU (ssRNA) [Ic_S1_P5E.1_K5.1_C5.1_H5.1_A5.1_[T5C]_[T6C]_F5.1_[T8C]_[T9C]_[A10G]_T5.1]
Solution: False

Problem: Thanks! And UCUCUUUCUACUAUUAUCUCUU (ssRNA) [Ib_S1_P5E.1_K5.1_C5.1_H5.1_[G2C]_A5.1_[T5C]_F5.1_T5.1] ?
Solution: False

Problem: And then Ic_S2_P5E.1_K5.1_C5.1_H5.1_A5.1_[A7G]_F5.1_[T8G]_T5.1 (ssRNA) RNA: UUUGAUUAAUAUGAUAUCGUUCUUUCUUGUAUUGGUAUUCUUUCUCGAUAUCAUAUUAAUCUUU , what is it?
Solution: False

***
Problem: Threshold query (pKd >= 8) on Id_ii_S4_P4E.3_K4.2_C4.2_[C-2T]_[T-1A]_H4.2_A4.1_F4.1_T4.2_[G10C]_[T11G] (ssRNA) RNA: UUUGACAACUGAUCGUUCUUUCUUAUAUAUAUUACGUUCUUUCUCGAUCAGUUGUCUUU
Solution: False

Problem: Follow-up entry: Ie_S2_P4E.1_K4.1_C4.1_H4.1_A4.1_F4.1_[+9CTCTC]_T4.1 (ssRNA) RNA: UUUGAUUAAUAUGAUAUCGUUCUUUCUUGUAUAUUACUCUCUUCUUUCUCGAUAUCAUAUUAAUCUUU
Solution: True
